ASSAY_TARGET: c-KIT T670I kinase (Homo sapiens, UniProt P10721, T670I)
Construct: The construct contains residues T544-V976 of cKit; GST (N); TEV cleavage site (internal)
Sequence (P10721 544-976 T670I): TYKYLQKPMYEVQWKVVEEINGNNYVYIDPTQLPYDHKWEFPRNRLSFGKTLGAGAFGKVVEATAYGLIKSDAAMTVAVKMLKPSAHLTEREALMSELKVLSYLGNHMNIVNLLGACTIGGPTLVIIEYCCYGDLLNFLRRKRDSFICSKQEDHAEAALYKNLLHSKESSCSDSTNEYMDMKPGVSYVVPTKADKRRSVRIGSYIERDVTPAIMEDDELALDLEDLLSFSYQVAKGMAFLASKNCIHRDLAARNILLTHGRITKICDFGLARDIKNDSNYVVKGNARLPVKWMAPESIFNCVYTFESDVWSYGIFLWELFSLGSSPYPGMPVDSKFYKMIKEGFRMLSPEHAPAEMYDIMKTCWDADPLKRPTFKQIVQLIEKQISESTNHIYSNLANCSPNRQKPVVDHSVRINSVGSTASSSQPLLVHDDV
ASSAY_NOTES: c-KIT T670I kinase assay
CONDITIONS: enzymatic assay
pIC50: −log10 of the molar value.
ASSAY_READOUT: pIC50

Please review the following examples before continuing.
INPUT_SMILES: CCn1c(=O)c(-c2cc(NC(=O)Nc3ccccc3F)c(F)cc2Cl)cc2cnc(NCCOC)cc21
ASSAY_READOUT: pIC50
VALUE_REPORTED: 6.00 to 7.00

INPUT_SMILES: CCn1c(=O)c(-c2cc(NC(=O)Nc3ccccc3)c(F)cc2Cl)cc2cnc(NC(=O)N3CC[C@H](N(C)C)C3)cc21
ASSAY_READOUT: pIC50
VALUE_REPORTED: 7.00 to 8.00

INPUT_SMILES: CCn1c(=O)c(-c2cc(NC(=O)Nc3ccccc3)c(F)cc2Cl)cc2cnc(N[C@@H](C)COC)cc21
ASSAY_READOUT: pIC50
VALUE_REPORTED: 6.00 to 7.00

Exercise: Quote pIC50 reported for CCn1c(=O)c(-c2cc(NC(=O)Nc3ccccc3)c(F)cc2Cl)cc2cnc(NCCOC)cc21 please.
Key: 7.00 to 8.00

Exercise: For the compound CCn1c(=O)c(-c2cc(NC(=O)Nc3ccccc3)c(F)cc2Br)cc2cnc(NC(=O)CC#N)cc21 , give its reported pIC50.
Key: 6.00 to 7.00

Exercise: Query pIC50 for CCn1c(=O)c(-c2cc(NC(=O)Nc3cccc4ccccc34)c(F)cc2C)cc2cnc(NC)cc21
Key: > 8.00

---

The compounds listed here are annotated with their pIC50.
ASSAY_TARGET: c-KIT D816V kinase (Homo sapiens, UniProt P10721, D816V)
Construct: residues T544-V976 with N-terminal GST fusion
Sequence (P10721 544-976 D816V): as the sequence (P10721 544-976 T670I) above, with I127T, D273V counted along it
ASSAY_NOTES: c-KIT D816V kinase Assay
CONDITIONS: enzymatic assay, ATP 200 uM
Protocol: In this assay, the oxidation of NADH (measured by decrease in absorbance at 340 nm) was continuously monitored spectrophotometrically. […] The inhibition reaction was started by mixing serial diluted test compound with the above reaction mixture. The absorption at 340 nm was monitored continuously for 5 hours at 30 °C on Synergy 2 plate reader (BioTech). The protein construct was prepared by deCODE Biostructures using procedures known in the art. […]
pIC50: −log10 of the molar value.

The cases that follow already have their pIC50 on record.
COMPOUND: CCn1c(=O)c(-c2cc(NC(=O)Nc3csc4ccccc34)c(F)cc2C)cc2cnc(NC(=O)N(C)C)cc21 [Example 104]
ASSAY_TARGET: c-KIT D816V kinase (Homo sapiens, UniProt P10721, D816V)
pIC50: 7.00 to 8.00
--
COMPOUND: CCn1c(=O)c(-c2cc(NC(=O)Nc3ccc(F)c(CN4CCN(C)CC4)c3)c(F)cc2C)cc2cnc(NC)cc21 [Example 89]
ASSAY_TARGET: c-KIT D816V kinase (Homo sapiens, UniProt P10721, D816V)
pIC50: 6.00 to 7.00
--
COMPOUND: CCn1c(=O)c(-c2cc(NC(=O)Nc3cc(F)ccc3F)c(F)cc2F)cc2cnc(NC)cc21 [Example 62]
ASSAY_TARGET: c-KIT D816V kinase (Homo sapiens, UniProt P10721, D816V)
pIC50: 6.00 to 7.00
--
COMPOUND: CCn1c(=O)c(-c2cc(NC(=O)Nc3ccccc3)c(F)cc2Cl)cc2cnc(NC(C)=O)cc21 [Example 54]
ASSAY_TARGET: c-KIT D816V kinase (Homo sapiens, UniProt P10721, D816V)
pIC50: > 8.00
--
COMPOUND: CCn1c(=O)c(-c2cc(NC(=O)Nc3ccc(F)c(CN4CCN(C)CC4)c3)c(F)cc2C)cc2cnc(NC=O)cc21 [Example 100]
ASSAY_TARGET: c-KIT D816V kinase (Homo sapiens, UniProt P10721, D816V)
pIC50: 6.00 to 7.00

Exercise: Indicate the recorded pIC50 value for this compound: CCn1c(=O)c(-c2cc(NC(=O)Nc3csc4ccccc34)c(F)cc2Cl)cc2cnc(NC)cc21 [Example 32]
Key: > 8.00

Exercise: # return recorded pIC50 for input CNc1cc2c(cn1)cc(-c1cc(NC(=O)Nc3cccc(F)c3)c(F)cc1C)c(=O)n2C(C)C [Example 41]
Key: 7.00 to 8.00

Exercise: Please report the measured pIC50 for CC(C)n1c(=O)c(-c2cc(NC(=O)Nc3ccccc3)c(F)cc2Cl)cc2cnc(NC(=O)N(C)C)cc21 [Example 103]
Key: > 8.00

Exercise: Tell me pIC50 reported for CCn1c(=O)c(-c2cc(NC(=O)Nc3ccccc3)c(F)cc2Cl)cc2cnc(NC(=O)N3CC(N(C)C)C3)cc21 [Example 102]
Key: 7.00 to 8.00

Exercise: Assign pIC50 to the following record: CCn1c(=O)c(-c2cc(NC(=O)Nc3ccccc3)c(F)cc2Br)cc2cnc(NC(=O)CC#N)cc21 [Example 64]
Key: 6.00 to 7.00

Exercise: Kindly indicate its recorded pIC50. Item: CCn1c(=O)c(-c2cc(NC(=O)Nc3cccc(F)c3)c(F)cc2Cl)cc2cnc(NCCOC)cc21 [Example 28]
Key: 7.00 to 8.00

Exercise: Please supply the value of reported pIC50 for the item CCn1c(=O)c(-c2cc(NC(=O)Nc3cccc(F)c3)c(F)cc2C)cc2cnc(NC(=O)N(C)C)cc21 [Example 106]
Key: 7.00 to 8.00

Exercise: Give reported pIC50 value for CCn1c(=O)c(-c2cc(NC(=O)Nc3cc(F)cc(F)c3)c(F)cc2Cl)cc2cnc(NC)cc21 [Example 55]
Key: 7.00 to 8.00

Exercise: Please supply the value of reported pIC50 for the item CNc1cc2c(cn1)cc(-c1cc(NC(=O)Nc3cccc(F)c3)c(F)cc1Cl)c(=O)n2C(C)C [Example 77]
Key: > 8.00

Exercise: For the compound CCn1c(=O)c(-c2cc(NC(=O)Nc3csc4ccccc34)c(F)cc2C)cc2cnc(NC)cc21 [Example 59] , give its measured pIC50 value.
Key: 7.00 to 8.00

Exercise: Kindly indicate its recorded pIC50. Item: CCn1c(=O)c(-c2cc(NC(=O)Nc3ccccc3)c(F)cc2C)cc2cnc(NC(=O)N3CCC3)cc21 [Example 110]
Key: 7.00 to 8.00

Exercise: Answer with reported pIC50 of CNc1cc2c(cn1)cc(-c1ccc(F)c(NC(=O)Nc3ccccc3)c1)c(=O)n2C(C)C [Example 5]
Key: 6.00 to 7.00

Exercise: Please list pIC50 recorded for the compound CCn1c(=O)c(-c2cc(NC(=O)Nc3ccccc3F)c(F)cc2Cl)cc2cnc(NCCOC)cc21 [Example 35]
Key: 7.00 to 8.00

Exercise: Entry CCn1c(=O)c(-c2cc(NC(=O)Nc3ccccc3F)c(F)cc2Cl)cc2cnc(NC)cc21 [Example 25] needs its pIC50 filled in; supply it.
Key: 7.00 to 8.00

Exercise: Answer with reported pIC50 of CCn1c(=O)c(-c2ccc(F)c(NC(=O)Nc3cccc(C#N)c3)c2)cc2cnc(NC)cc21 [Example 12]
Key: < 6.00

Exercise: Identify the reported pIC50 for the following entry. CCn1c(=O)c(-c2cc(NC(=O)Nc3ccc(F)c(CN4CCN(C)CC4)c3)c(F)cc2Cl)cc2cnc(NC)cc21 [Example 87]
Key: 6.00 to 7.00

Exercise: Tell me its pIC50 given CNc1cc2c(cn1)cc(-c1cc(NC(=O)Nc3csc4ccccc34)c(F)cc1F)c(=O)n2C [Example 14] as the entry.
Key: 7.00 to 8.00

Exercise: Identify measured pIC50 corresponding to CCn1c(=O)c(-c2cc(NC(=O)Nc3ccccc3)c(F)cc2Cl)cc2cnc(NC(=O)CC#N)cc21 [Example 65]
Key: 7.00 to 8.00

Exercise: Fill in pIC50 for record CCn1c(=O)c(-c2cc(NC(=O)Nc3cc(F)ccc3F)c(F)cc2Cl)cc2cnc(NC)cc21 [Example 68]
Key: 7.00 to 8.00
